ASSAY_SYSTEM: HDAC8 (Homo sapiens (Human), UniProt Q9BY41)
Sequence (Q9BY41 whole entry): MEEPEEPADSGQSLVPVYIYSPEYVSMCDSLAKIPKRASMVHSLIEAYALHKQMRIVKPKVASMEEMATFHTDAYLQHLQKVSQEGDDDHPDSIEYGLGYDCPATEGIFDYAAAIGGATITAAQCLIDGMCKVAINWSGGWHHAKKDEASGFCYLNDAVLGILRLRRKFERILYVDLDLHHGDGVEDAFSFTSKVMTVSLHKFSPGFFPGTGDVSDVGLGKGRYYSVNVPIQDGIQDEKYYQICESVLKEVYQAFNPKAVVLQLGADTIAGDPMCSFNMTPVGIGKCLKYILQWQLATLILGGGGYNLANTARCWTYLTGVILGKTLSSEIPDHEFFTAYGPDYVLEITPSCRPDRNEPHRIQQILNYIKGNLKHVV
PROTOCOL_TEXT: In vitro enzyme inhibition assay - HDAC (HDAC-Glo I/II), HDAC8
Assay type: biochemical
RUN_CONDITIONS: read-out: HDAC IC50 (nM) HDAC 8
Structures can show the parent of a compound that is named as a salt.
PARAMETER_MEASURED: IC50 (nM)
Answers are plain numbers, in nM.

Example entries begin here.
# COMPOUND, UNITS_LABEL, IC50
measured = [
    ("COc1cc(-c2cnc(N3CCC(NCc4ccc(/C=C/C(=O)NO)cc4)CC3)c(C#N)c2-c2ccc(C#N)c(F)c2)ccc1O [Example 100, hydrochloride]", "nM", 36),
    ("COc1ccc(-c2cnc(N3CCC(NCc4ccc(/C=C/C(=O)NO)cc4F)CC3)c(C#N)c2-c2ccc(C#N)c(F)c2)cc1O [Example 154, hydrochloride]", "nM", 309),
    ("COc1ccc(-c2cnc(N3CCC(NC(C)(C)c4ccc(/C=C/C(=O)NO)cc4)CC3)c(C#N)c2-c2ccc(C#N)c(F)c2)cc1O [Example 179, formate]", "nM", 374),
    ("N#Cc1ccc(-c2c(-c3ccc4cn[nH]c4c3)cnc(N3CCC(NCc4ccc(/C=C/C(=O)NO)nc4)CC3)c2C#N)cc1F [Example 182, formate]", "nM", 30.1),
]

Below are 2 compounds. Give each one its IC50.
1. COc1ccc(-c2cnc(N3CCC(NCCc4ccc(CC(=O)NO)cc4)CC3)c(C#N)c2-c2ccc(C#N)c(F)c2)cc1O [Example 120, formate]
2. COc1ccc(-c2cnc(N3CCC(NCc4ccc(CCC(=O)NO)c(C#N)c4)CC3)c(C#N)c2-c2ccc(C#N)c(F)c2)cc1O

Completion:
1: 1950; 2: 297

----------
For each of the molecules below, state its log10(IC50).
ASSAY_SYSTEM: pan-HDAC
PROTOCOL_TEXT: In vitro enzyme inhibition assay - HDAC (HDAC-Glo I/II), pan-HDAC
Assay type: biochemical
Text: 2. In Vitro Enzyme Inhibition Assay—HDAC The effect of the compound on the enzymatic activity of pan-HDAC and two isoforms (HDAC1 and HDAC8) was examined using the HDAC-Glo I/II Assay and Screening System assay to assess the level of inhibition of HDAC protease activity and selectivity in each isoform. […] The 384-well plate was then read on a multifunctional microplate reader, with the Luminescence channel selected to record Luminescence values (RLU). […]
Counter-ions that a name gives are not always drawn.
Log10 applied to IC50; unit prior to transform: nM.

Example entries begin here.
# MOLECULE, log10(IC50)
records = [
    ("N#Cc1ccc(-c2cc(C(=O)N3C4CCC3CC(N)C4)sc2-c2ccc(OCCCCCCC(=O)NO)c(O)c2)cc1F (stereo not shown) [Example 32, hydrochloride]", 1.15),
    ("COc1ccc(-c2cnc(N3CCC(NCc4ccc(/C=C/C(=O)NO)cc4)CC3)c(C)c2-c2ccc(C#N)c(F)c2)cc1O [Example 144, hydrochloride]", -0.07),
    ("N#Cc1ccc(-c2c(-c3ccc(C(F)(F)F)c(O)c3)cnc(N3CCC(NCc4cnc(/C=C/C(=O)NO)nc4)CC3)c2C#N)cc1F [Example 186, formate]", 1.08),
    ("COc1ccc(-c2cnc(N3CCC(NCc4ccc(/C=C/C(=O)NO)cc4)CC3)c(C#N)c2-c2ccc(C#N)c(F)c2)cc1 [Example 52, hydrochloride]", 0.63),
]

Below are 2 molecules. Give each one its log10(IC50).
1. COc1ccc(-c2cnc(N3CCC(NCc4ccc(/C=C/C(=O)NO)cc4)CC3)cc2-c2ccc(C#N)c(F)c2)cc1O [Example 80, formate]
2. COc1ccc(-c2cnc(N3CCC(NCc4ccc(/C=C/C(=O)NO)cn4)CC3)c(C#N)c2-c2ccc(C#N)c(F)c2)cc1O

Completion:
1: 1.17; 2: 1.03

Below are 2 molecules. Give each one its log10(IC50).
1. COc1ccc(-c2cnc(N3CCC(NCCc4ccc(CC(=O)NO)cc4)CC3)c(C#N)c2-c2ccc(C#N)c(F)c2)cc1O [Example 120, formate]
2. N#Cc1ccc(-c2c(-c3ccc4cn[nH]c4c3)cnc(N3CCC(NCc4cnc(/C=C/C(=O)NO)nc4)CC3)c2C#N)cc1F

Completion:
1: 3.12; 2: 0.82

Below are 4 molecules. Give each one its log10(IC50).
1. COc1ccc(-c2cnc(N3CCC(N)(c4ccc(/C=C/C(=O)NO)cc4)CC3)c(C#N)c2-c2ccc(C#N)c(F)c2)cc1O
2. COc1ccc(-c2c(OCCCCCCC(=O)NO)cc(N3CCC(N)CC3)nc2-c2ccc(C#N)c(F)c2)cc1 [Example 8, trifluoroacetate]
3. CC(C)(O)COc1ccc(-c2cnc(N3CCC(NCc4ccc(CCC(=O)NO)nc4)CC3)c(C#N)c2-c2ccc(C#N)c(F)c2)cc1O
4. COc1cc(N2CCC(N)CC2)nc(-c2ccc(C#N)c(F)c2)c1-c1ccc(/C=C/C(=O)NO)c(O)c1 [Example 28, formate]

Completion:
[2.04, 1.34, 0.37, 2.43]

get_value(item= COc1ccc(-c2ccc(C(=O)N3CC[C@H](NCc4ccc(/C=C/C(=O)NO)cc4)C3)cc2-c2ccc(C#N)c(F)c2)cc1O , readout=log10(IC50)) returns 2.04

Values were extracted from patent US20250304549A1.
